Data provenance is the supplement of paper PMC10567573.

B1: WDFY2 (parent)
chain: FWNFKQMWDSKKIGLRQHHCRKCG

Variants of: B1
assay-info: protein stability index of a GFP-peptide fusion (GPS, HEK-293T) (PSI 1-6); higher = more stable;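 also: lentivirally expressed fusions sorted by FACS into six bins by GFP to DsRed ratio, PSI derived from sequencing read proportions per bin multiplied by bin number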
setup-conditions: c terminus: a fixed tail appended
Label Criterion met when protein stability index is at or above 2; otherwise label Criterion not met.

See these solved cases before continuing.
stdin: Assess whether reported protein stability index for C23M sits at 2 or higher.
stdout: Criterion not met

stdin: Assess whether reported protein stability index for R16D sits at 2 or higher.
stdout: Criterion met

stdin: Assess whether reported protein stability index for Q6S sits at 2 or higher.
stdout: Criterion not met

***
stdin: Assess whether reported protein stability index for R21H sits at 2 or higher.
stdout: Criterion met

stdin: Assess whether reported protein stability index for H19C sits at 2 or higher.
stdout: Criterion not met
